Data origin, for the record: the supplement of paper PMC8728848

target: Gal(b1-4)Gal; experiment: glycan array binding signal (z-score within array); higher = stronger binding; settings: glycan notation: IUPAC condensed, linker removed
The full list was thinned out, with the strongest signals kept by preference.
reported.metric: glycan array binding signal (z-score)
One number for each entry.

These recorded examples may help you get a feel for the data.
INSERT INTO results (binder, quantitative_readout) VALUES
  ('Gal-9-hFc (Mus musculus), O08573-2 (protein) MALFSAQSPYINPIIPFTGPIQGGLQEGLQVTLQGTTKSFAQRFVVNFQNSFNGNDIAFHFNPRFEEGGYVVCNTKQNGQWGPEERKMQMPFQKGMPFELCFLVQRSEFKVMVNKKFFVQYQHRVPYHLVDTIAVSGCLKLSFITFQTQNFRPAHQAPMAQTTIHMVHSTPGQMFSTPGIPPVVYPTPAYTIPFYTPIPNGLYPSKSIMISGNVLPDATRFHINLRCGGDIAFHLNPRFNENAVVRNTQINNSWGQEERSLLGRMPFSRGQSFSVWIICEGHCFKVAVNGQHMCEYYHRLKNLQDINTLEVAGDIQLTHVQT', 0.307),
  ('Mermaid2 (Stilbonema majum) (protein) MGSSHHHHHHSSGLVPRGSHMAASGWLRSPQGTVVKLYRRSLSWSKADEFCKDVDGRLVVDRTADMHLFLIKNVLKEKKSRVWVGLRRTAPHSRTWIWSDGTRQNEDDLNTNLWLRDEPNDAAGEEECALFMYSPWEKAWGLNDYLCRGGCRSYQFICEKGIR', 6.71),
  ('LTL (Lotus tetragonolobus), P19664 (protein) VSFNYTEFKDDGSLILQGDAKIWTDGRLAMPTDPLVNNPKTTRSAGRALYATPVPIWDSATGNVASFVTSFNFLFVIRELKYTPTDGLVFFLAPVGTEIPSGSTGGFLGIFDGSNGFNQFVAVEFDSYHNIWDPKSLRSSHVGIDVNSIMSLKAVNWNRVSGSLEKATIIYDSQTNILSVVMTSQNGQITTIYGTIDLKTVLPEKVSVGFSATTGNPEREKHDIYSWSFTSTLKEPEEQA', -0.131);

Batch request: glycan array binding signal (z-score) for each of the following binders.
1. MGL2 (Mus musculus), Q8JZN1 (protein) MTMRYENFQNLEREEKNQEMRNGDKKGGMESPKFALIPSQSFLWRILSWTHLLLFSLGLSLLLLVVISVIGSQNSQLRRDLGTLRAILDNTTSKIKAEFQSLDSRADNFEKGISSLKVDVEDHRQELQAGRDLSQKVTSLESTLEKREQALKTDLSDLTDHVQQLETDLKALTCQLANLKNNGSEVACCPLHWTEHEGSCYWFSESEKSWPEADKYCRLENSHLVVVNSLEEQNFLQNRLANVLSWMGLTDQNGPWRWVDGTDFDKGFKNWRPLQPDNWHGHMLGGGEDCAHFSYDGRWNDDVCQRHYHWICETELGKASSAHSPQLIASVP
2. Mermaid1 (Stilbonema majum) (protein) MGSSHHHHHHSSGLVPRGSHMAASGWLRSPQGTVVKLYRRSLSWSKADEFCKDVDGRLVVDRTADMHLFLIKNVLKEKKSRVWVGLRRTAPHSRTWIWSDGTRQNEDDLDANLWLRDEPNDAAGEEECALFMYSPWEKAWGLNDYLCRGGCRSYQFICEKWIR

Reply:
1. -0.267
2. 3.2
